# Lookup of reported microsomal CLint at 1 μM keyed by entry
experiment: Metabolic stability evaluation, liver microsome assay (RLM); type: in vitro ADME, SD rat; details: Sprague-Dawley, pH 7.4; rat liver microsomes 0.5 mg/mL, compound 1 μM, NADPH, 37° C.

[
  {
    "COMPOUND": "[2H]C([2H])(c1ccc(OC)nc1)N1C2CC1CN(c1ccc(-c3cc(OCC(C)(C)O)cn4ncc(C#N)c34)cn1)C2 [Example 11]",
    "UNIT_SYMBOL": "µL/min/mg",
    "microsomal CLint at 1 μM": 11.7
  },
  {
    "COMPOUND": "[2H]C([2H])(c1ccc(OC)nc1)N1C2CC1CN(c1ccc(-c3cc(-c4cnn(C)c4)cn4ncc(C#N)c34)cn1)C2 [Example 2]",
    "UNIT_SYMBOL": "µL/min/mg",
    "microsomal CLint at 1 μM": 35.1
  },
  {
    "COMPOUND": "[2H]C([2H])([2H])n1cc(-c2cc(-c3ccc(N4CC5CC(C4)N5Cc4ccc(OC)nc4)nc3)c3c(C#N)cnn3c2)cn1 [Example 7]",
    "UNIT_SYMBOL": "µL/min/mg",
    "microsomal CLint at 1 μM": 11.3
  },
  {
    "COMPOUND": "[2H]C([2H])([2H])Oc1ccc(C([2H])([2H])N2C3CC2CN(c2ccc(-c4cc(OCC(C)(C)O)cn5ncc(C#N)c45)cn2)C3)cn1 [Example 13]",
    "UNIT_SYMBOL": "µL/min/mg",
    "microsomal CLint at 1 μM": 10.8
  },
  {
    "COMPOUND": "[2H]C([2H])([2H])Oc1ccc(CN2C3CC2CN(c2ccc(-c4cc(-c5cnn(C)c5)cn5ncc(C#N)c45)cn2)C3)cn1 [Example 1]",
    "UNIT_SYMBOL": "µL/min/mg",
    "microsomal CLint at 1 μM": 51.5
  },
  {
    "COMPOUND": "[2H]C([2H])([2H])Oc1ccc(C([2H])([2H])N2C3CC2CN(c2ccc(-c4cc(-c5cnn(C([2H])([2H])[2H])c5)cn5ncc(C#N)c45)cn2)C3)cn1 [Example 6]",
    "UNIT_SYMBOL": "µL/min/mg",
    "microsomal CLint at 1 μM": 47.3
  }
]

###

# microsomal CLint at 1 μM listing for each entry below
assay: Metabolic stability evaluation, liver microsome assay (MLM); assay type: in vitro ADME; conditions: mouse, mouse liver microsomes, pH 7.4; mice liver microsomes 0.5 mg/mL, compound 1 μM, NADPH, 37° C.

[
  {
    "COMPOUND": "[2H]C([2H])(c1ccc(OC)nc1)N1C2CC1CN(c1ccc(-c3cc(-c4cnn(C)c4)cn4ncc(C#N)c34)cn1)C2 [Example 2]",
    "microsomal CLint at 1 μM [µL/min/mg]": 78.3
  },
  {
    "COMPOUND": "[2H]C([2H])([2H])Oc1ccc(CN2C3CC2CN(c2ccc(-c4cc(OCC(C)(C)O)cn5ncc(C#N)c45)cn2)C3)cn1 [Example 12]",
    "microsomal CLint at 1 μM [µL/min/mg]": 44.9
  },
  {
    "COMPOUND": "[2H]C([2H])([2H])Oc1ccc(C([2H])([2H])N2C3CC2CN(c2ccc(-c4cc(-c5cnn(C([2H])([2H])[2H])c5)cn5ncc(C#N)c45)cn2)C3)cn1 [Example 6]",
    "microsomal CLint at 1 μM [µL/min/mg]": 65
  },
  {
    "COMPOUND": "[2H]C([2H])(c1ccc(OC)nc1)N1C2CC1CN(c1ccc(-c3cc(-c4cnn(C([2H])([2H])[2H])c4)cn4ncc(C#N)c34)cn1)C2 [Example 5]",
    "microsomal CLint at 1 μM [µL/min/mg]": 75.8
  },
  {
    "COMPOUND": "[2H]C([2H])([2H])n1cc(-c2cc(-c3ccc(N4CC5CC(C4)N5Cc4ccc(OC)nc4)nc3)c3c(C#N)cnn3c2)cn1 [Example 7]",
    "microsomal CLint at 1 μM [µL/min/mg]": 76
  },
  {
    "COMPOUND": "[2H]C([2H])([2H])Oc1ccc(CN2C3CC2CN(c2ccc(-c4cc(-c5cnn(C([2H])([2H])[2H])c5)cn5ncc(C#N)c45)cn2)C3)cn1 [Example 4]",
    "microsomal CLint at 1 μM [µL/min/mg]": 63.5
  },
  {
    "COMPOUND": "[2H]C([2H])([2H])Oc1ccc(C([2H])([2H])N2C3CC2CN(c2ccc(-c4cc(-c5cnn(C)c5)cn5ncc(C#N)c45)cn2)C3)cn1 [Example 3]",
    "microsomal CLint at 1 μM [µL/min/mg]": 68.8
  },
  {
    "COMPOUND": "[2H]C([2H])([2H])Oc1ccc(C([2H])([2H])N2C3CC2CN(c2ccc(-c4cc(OCC(C)(C)O)cn5ncc(C#N)c45)cn2)C3)cn1 [Example 13]",
    "microsomal CLint at 1 μM [µL/min/mg]": 42.8
  },
  {
    "COMPOUND": "[2H]C([2H])(c1ccc(OC)nc1)N1C2CC1CN(c1ccc(-c3cc(OCC(C)(C)O)cn4ncc(C#N)c34)cn1)C2 [Example 11]",
    "microsomal CLint at 1 μM [µL/min/mg]": 44.8
  },
  {
    "COMPOUND": "[2H]C([2H])(c1ccc(OC)nc1)N1C2CC1CN(c1ccc(-c3cc(OC[C@H]4CNCCO4)cn4ncc(C#N)c34)cn1)C2 [Example 8]",
    "microsomal CLint at 1 μM [µL/min/mg]": 5.8
  },
  {
    "COMPOUND": "[2H]C([2H])([2H])Oc1ccc(CN2C3CC2CN(c2ccc(-c4cc(-c5cnn(C)c5)cn5ncc(C#N)c45)cn2)C3)cn1 [Example 1]",
    "microsomal CLint at 1 μM [µL/min/mg]": 73.2
  }
]

###

Recorded half-life at 1 μM, one value per entry.
assay: Metabolic stability evaluation, liver microsome assay (MLM); assay type: in vitro ADME; conditions: mouse, mouse liver microsomes, pH 7.4; mice liver microsomes 0.5 mg/mL, compound 1 μM, NADPH, 37° C.; read-out: MLM t1/2

[
  {
    "COMPOUND": "[2H]C([2H])(c1ccc(OC)nc1)N1C2CC1CN(c1ccc(-c3cc(OC[C@H]4CNCCO4)cn4ncc(C#N)c34)cn1)C2",
    "half-life at 1 μM [min]": 237
  },
  {
    "COMPOUND": "[2H]C([2H])([2H])Oc1ccc(CN2C3CC2CN(c2ccc(-c4cc(-c5cnn(C([2H])([2H])[2H])c5)cn5ncc(C#N)c45)cn2)C3)cn1",
    "half-life at 1 μM [min]": 21.8
  },
  {
    "COMPOUND": "[2H]C([2H])([2H])Oc1ccc(CN2C3CC2CN(c2ccc(-c4cc(-c5cnn(C)c5)cn5ncc(C#N)c45)cn2)C3)cn1",
    "half-life at 1 μM [min]": 18.9
  },
  {
    "COMPOUND": "[2H]C([2H])(c1ccc(OC)nc1)N1C2CC1CN(c1ccc(-c3cc(-c4cnn(C)c4)cn4ncc(C#N)c34)cn1)C2",
    "half-life at 1 μM [min]": 17.7
  },
  {
    "COMPOUND": "[2H]C([2H])(c1ccc(OC)nc1)N1C2CC1CN(c1ccc(-c3cc(-c4cnn(C([2H])([2H])[2H])c4)cn4ncc(C#N)c34)cn1)C2",
    "half-life at 1 μM [min]": 18.3
  },
  {
    "COMPOUND": "[2H]C([2H])([2H])Oc1ccc(C([2H])([2H])N2C3CC2CN(c2ccc(-c4cc(-c5cnn(C)c5)cn5ncc(C#N)c45)cn2)C3)cn1",
    "half-life at 1 μM [min]": 20.2
  },
  {
    "COMPOUND": "[2H]C([2H])([2H])Oc1ccc(C([2H])([2H])N2C3CC2CN(c2ccc(-c4cc(OCC(C)(C)O)cn5ncc(C#N)c45)cn2)C3)cn1",
    "half-life at 1 μM [min]": 32.4
  },
  {
    "COMPOUND": "[2H]C([2H])([2H])n1cc(-c2cc(-c3ccc(N4CC5CC(C4)N5Cc4ccc(OC)nc4)nc3)c3c(C#N)cnn3c2)cn1",
    "half-life at 1 μM [min]": 18.2
  },
  {
    "COMPOUND": "[2H]C([2H])([2H])Oc1ccc(C([2H])([2H])N2C3CC2CN(c2ccc(-c4cc(-c5cnn(C([2H])([2H])[2H])c5)cn5ncc(C#N)c45)cn2)C3)cn1",
    "half-life at 1 μM [min]": 21.3
  },
  {
    "COMPOUND": "[2H]C([2H])(c1ccc(OC)nc1)N1C2CC1CN(c1ccc(-c3cc(OCC(C)(C)O)cn4ncc(C#N)c34)cn1)C2",
    "half-life at 1 μM [min]": 30.9
  },
  {
    "COMPOUND": "[2H]C([2H])([2H])Oc1ccc(CN2C3CC2CN(c2ccc(-c4cc(OCC(C)(C)O)cn5ncc(C#N)c45)cn2)C3)cn1",
    "half-life at 1 μM [min]": 30.8
  }
]

The measured values listed here are drawn from patent US12129266B2.
